Test system: SCLC
assay method text: Cytotoxicity in SCLC (human lung carcinoma) cell line.
Assay type: functional, cell-based
property name: IC50 (nM)
Numeric only. Scale: nM

>  <smiles entry>
COc1cccc(OC2=C(Cl)C(=O)c3c(OC)ccc(OC)c3C2=O)c1

>  <unit symbol>
nM

>  <IC50>
2000

$$$$
>  <smiles entry>
COc1ccc(OC)c2c1C(=O)C(Cl)=C(Oc1cccc(O)c1)C2=O

>  <unit symbol>
nM

>  <IC50>
300

$$$$
>  <smiles entry>
COc1cccc(OC2=C(Cl)C(=O)c3c(OC(C)=O)ccc(OC(C)=O)c3C2=O)c1

>  <unit symbol>
nM

>  <IC50>
5000

$$$$
>  <smiles entry>
O=C1c2oc3cc(O)cc(O)c3c2C(=O)c2c(O)ccc(O)c21

>  <unit symbol>
nM

>  <IC50>
1500

$$$$

# context switch: different molecule, same IC50
Lookup: Please indicate IC50 recorded for O=C1C=CC(=O)c2c(O)c(Oc3ccccc3)c(Oc3ccccc3)c(O)c21
Found: 100

====

tested target: DNA topoisomerase II (Homo sapiens) (UniProt P11388+Q02880)
assay method text: Relative activity to induce mammalian DNA topoisomerase II-mediated DNA cleavage
Assay type: functional
property name: Activity
# respond with the number and nothing more

>  <smiles entry>
COc1cccc(OC2=C(Cl)C(=O)c3c(OC)ccc(OC)c3C2=O)c1

>  <tested target>
DNA topoisomerase II (Homo sapiens) (UniProt P11388+Q02880)

>  <Activity>
20

$$$$
>  <smiles entry>
O=C1C=CC(=O)c2c(O)c(Oc3ccccc3)c(Cl)c(O)c21

>  <tested target>
DNA topoisomerase II (Homo sapiens) (UniProt P11388+Q02880)

>  <Activity>
4000

$$$$
>  <smiles entry>
COc1cc(OC)cc(OC2=C(Cl)C(=O)c3c(OC)ccc(OC)c3C2=O)c1

>  <tested target>
DNA topoisomerase II (Homo sapiens) (UniProt P11388+Q02880)

>  <Activity>
100

$$$$
>  <smiles entry>
COc1cccc(OC2=C(Oc3cccc(OC)c3)C(=O)c3c(OC)ccc(OC)c3C2=O)c1

>  <tested target>
DNA topoisomerase II (Homo sapiens) (UniProt P11388+Q02880)

>  <Activity>
0

$$$$
>  <smiles entry>
COc1c(Cl)c(Cl)c(OC)c2c1C(=O)C=CC2=O

>  <tested target>
DNA topoisomerase II (Homo sapiens) (UniProt P11388+Q02880)

>  <Activity>
10

$$$$
>  <smiles entry>
O=C1c2oc3cc(O)cc(O)c3c2C(=O)c2c(O)ccc(O)c21

>  <tested target>
DNA topoisomerase II (Homo sapiens) (UniProt P11388+Q02880)

>  <Activity>
2000

$$$$

Lookup: Please indicate Activity recorded for COc1cccc(OC2=C(Cl)C(=O)c3c(OC(C)=O)ccc(OC(C)=O)c3C2=O)c1
Found: 200

Lookup: Please indicate Activity recorded for COc1ccc(OC)c2c1C(=O)C(Cl)=C(Cl)C2=O
Found: 200

Lookup: Please indicate Activity recorded for COc1ccc2c3c(oc2c1)C(=O)c1c(OC)ccc(OC)c1C3=O
Found: 2

Lookup: Please indicate Activity recorded for O=C1C(Cl)=C(Oc2cc(O)cc(O)c2)C(=O)c2c(O)ccc(O)c21
Found: 200

====

Test system: SCLC
assay method text: Cytotoxicity in SCLC (human lung carcinoma) cell line.
Type: functional, cell-based
property name: pIC50
Please note pIC50 is a logarithmic value: minus log10 of concentration in mol/L. Answer with that number alone.

>  <smiles entry>
O=C1C(Cl)=C(Oc2cccc(O)c2)C(=O)c2c(O)ccc(O)c21

>  <pIC50>
6.35

$$$$

Lookup: Under SCLC, report pIC50 for COc1cc(OC)cc(OC2=C(Cl)C(=O)c3c(OC(C)=O)ccc(OC(C)=O)c3C2=O)c1
Found: 5.96
